Test system: KG-1 cells
Test: MTT cytotoxicity, KG-1
Type: cell-based, human
Conditions: KG-1, pre-exposure to ATRA, media containing 1 mM folic acid
Protocol: FR-targeted liposomal doxorubicin (f-L-DOX) was evaluated for in vitro cytotoxicity in both FR (+) and FR (−) leukemia cells using a standard cell survival assay (MTT assay). FR-targeted liposomal-doxorubicin (f-L-DOX) was prepared as described above. […] Cell viability was determined and IC50 values were calculated. […]
endpoint name: IC50
For clarity, give the value followed by its unit.

Prompt: IC50 lookup needed for COc1cccc2c1C(=O)c1c(O)c3c(c(O)c1C2=O)C[C@@](O)(C(=O)CO)C[C@@H]3O[C@H]1C[C@H](N)[C@H](O)[C@H](C)O1 [Free DOX, doxorubicin] , thanks.
Completion: 0.68 µM
